target: A*6802 (Homo sapiens, UniProt P04439, A269V/D140Y/D185E/E176V/E277Q/E87N/F33Y/G231S/I121R/I166T/I218V/L180W/L300P/L318F/N151K/P208A/P217A/Q86R/R138H/R169H/S129P/T345S/V36M); assay: biochemical; type: binding
pIC50: −log10 of the molar value. No end group written: not given here.
pIC50 reference

See these solved cases before continuing.
>  <chain.sequence>
VLAEAMSHT [Peptide 1539.06]

>  <pIC50>
< 4.70

$$$$
>  <chain.sequence>
RTLHDLCQA [Peptide 1481.46]

>  <pIC50>
< 4.70

$$$$
>  <chain.sequence>
TLKLTIEST [Peptide 9013.0010]

>  <pIC50>
< 4.70

$$$$
>  <chain.sequence>
LLLSNDNRTL [Peptide 9013.0205]

>  <pIC50>
< 4.70

$$$$
>  <chain.sequence>
WLRLLLTASLL [Peptide 9013.0254]

>  <pIC50>
< 4.70

$$$$
>  <chain.sequence>
RILQQMLFI [Peptide 1525.22]

>  <pIC50>
< 4.70

$$$$

Sure, the documented pIC50 for KLTQLCVTL [Peptide 1537.02] is < 4.70

The measured pIC50 associated with ALYWYRTGL [Peptide 1578.30] reads < 4.70

###

target: A*3301 (Homo sapiens, UniProt P04439, A270S/D185E/E176V/E277Q/E87N/F33T/G231S/H175R/I121M/I218V/I322F/K168Q/K210R/L300P/L318F/M331R/P217A/Q86R/Q94H/R138Q/T323A/T345S/T97I/V358M/Y195H); assay: biochemical
pIC50: −log10 of the molar value.
observed.property: pIC50

// recorded pIC50 for CC(C)C[C@H](NC(=O)[C@H](Cc1c[nH]cn1)NC(=O)[C@H](CO)NC(=O)[C@H](CO)NC(=O)[C@H](Cc1c[nH]cn1)NC(=O)[C@H](C)NC(=O)[C@@H](N)CCCNC(=N)N)C(=O)N[C@@H](CCCCN)C(=O)O [Peptide 1556.70] : < 4.70

So, CC(C)C[C@H](NC(=O)[C@H](CO)NC(=O)[C@@H](N)CCCNC(=N)N)C(=O)N[C@@H](Cc1ccc(O)cc1)C(=O)N[C@@H](CC(N)=O)C(=O)N[C@H](C(=O)N[C@H](C(=O)N[C@@H](C)C(=O)N[C@H](C(=O)N[C@@H](CC(C)C)C(=O)N[C@@H](Cc1ccc(O)cc1)C(=O)O)[C@@H](C)O)C(C)C)[C@@H](C)O [Peptide 1595.06] ? Its pIC50 was < 4.70

// pIC50 value for CC(C)C[C@H](NC(=O)[C@H](CCCNC(=N)N)NC(=O)[C@H](CCC(=O)O)NC(=O)[C@H](CCC(N)=O)NC(=O)[C@H](CCCNC(=N)N)NC(=O)[C@H](C)NC(=O)[C@@H](N)CCCNC(=N)N)C(=O)N[C@@H](CCC(N)=O)C(=O)N[C@@H](CCCNC(=N)N)C(=O)O [Peptide 78.0311] : < 4.70

###

target: A*0202 (Homo sapiens, UniProt P04439, D140Y/D185E/D98H/E176V/E277Q/G131W/G231S/I119L/I121R/I166T/I218V/L180W/L300P/L318F/N151K/N90K/P208A/P217A/Q67R/Q86G/Q94H/R138H/R169H/T345S); assay: biochemical; format: binding
No end group written: not given here.
observed.property: log10 IC50 (log10 of the value in nM)
All values: log10 IC50 [nM].

Some sequences with recorded log10 IC50:
>  <chain.sequence>
SLNRSDPVT [Peptide 9013.0099]

>  <log10 IC50>
2.08

$$$$
>  <chain.sequence>
YVIGTQQAV [Peptide 9013.0024]

>  <log10 IC50>
0.51

$$$$
>  <chain.sequence>
VLAEAMAAA [Peptide 1516.12]

>  <log10 IC50>
0.28

$$$$
>  <chain.sequence>
VLGEAMSQA [Peptide 1539.08]

>  <log10 IC50>
1.32

$$$$
>  <chain.sequence>
IQNDTGFYV [Peptide 9013.0035]

>  <log10 IC50>
1.20

$$$$
>  <chain.sequence>
TLYAHIQCL [Peptide 1578.26]

>  <log10 IC50>
0.69

$$$$
>  <chain.sequence>
NVAEGKEVLV [Peptide 9013.0133]

>  <log10 IC50>
3.06

$$$$
>  <chain.sequence>
VAWDSVYYV [Peptide 1593.57]

>  <log10 IC50>
1.54

$$$$

Reported log10 IC50 ( RTLQQLLFV [Peptide 1525.15] ) = 3.11

Record QQSTQELFV [Peptide 9013.0056] . Reported log10 IC50: 2.21

Form field log10 IC50, entry LLFWNPPTT [Peptide 9013.0007] : 1.18

get_value(item= WLNNQSLPV [Peptide 9013.0070] , readout=log10 IC50) returns 0.11

Kindly note the recorded log10 IC50 for GLQQATPGPA [Peptide 9013.0143] , which is 2.34

Lab note: GLNLSLSCHAA [Peptide 9013.0312] gave log10 IC50 of 1.67

ALYWYRTGL [Peptide 1578.30] has a reported log10 IC50 of 0.91

Query QQIEFITFL [Peptide 1578.10] yields log10 IC50 of 0.77

Lab note: LTIESTPFNVV [Peptide 9013.0267] gave log10 IC50 of 2.27

Kindly note the recorded log10 IC50 for FQFQNPFPL [Peptide 1578.40] , which is -0.12

Value of log10 IC50 reported for the sequence HLQVLFIAKI [Peptide 9013.0244] is 2.90
